tested on: SN12C renal; assay: NCI tumour cell line growth inhibition, 48 h
measurement label: TGI (µM)
Could you give me the number in µM? Just the number is fine.

# mol smiles, target of assay, TGI (µM)
records = [
    ("CC(C)(C)OC(=O)n1c(Cl)c(C=O)c2ccccc21", "SN12C renal", 54.3),
    ("COc1cc(C(=O)O/N=C(\\N)Cc2cccc3ccccc23)cc(OC)c1OC", "SN12C renal", 42.3),
    ("Fc1ccc([C@@H]2CCNC[C@H]2COc2ccc3c(c2)OCO3)cc1", "SN12C renal", 18.9),
]

From here, focus on the item given below.
# get_value(readout='TGI', item= O=c1c2c(=NCCN3CCCC3)cc3c(=O)n(CCCN4CCOCC4)c(=O)c4ccc(c(O)n1CCCN1CCOCC1)c2c4-3 )
4.54

###

system: SF-295 CNS; assay: NCI tumour cell line growth inhibition, 48 h
measurement label: TGI (µM)
Could you give me the number in µM? Just the number is fine.

# compound, TGI [µM]
data = [
    ("CCN(CC)C1Oc2cc3c(cc2C(c2cccc(OC)c2O)C1C)OCO3 (centres undefined)", 15.4),
    ("COc1ccc(C(=O)/C=C/c2cc(-c3ccc4c(c3)OCO4)n[nH]2)cc1OC", 6.15),
]

# get_value(readout='TGI', item= Nc1nc(-c2ccc(Cl)cc2)cc(-c2ccc(Cl)cc2)c1-c1nc2ccccc2o1 )
40.3

###

tested on: SNB-19 CNS; test: NCI tumour cell line growth inhibition, 48 h; in the data active means GI50 below about 0.43 µM; inactive means the rest
Write down one outcome, taken from active, inactive

# compound, class
measured = [
    ("O=c1c2c(=NCCN3CCCC3)cc3c(=O)n(CCCN4CCOCC4)c(=O)c4ccc(c(O)n1CCCN1CCOCC1)c2c4-3", "active"),
    ("COc1cc(OC)c(F)c(COc2cnc(Nc3cnn(CCO)c3)nc2)c1F", "inactive"),
    ("CCSc1ccc([C@@H]2[C@@H](N)C(=O)N2c2cc(OC)c(OC)c(OC)c2)cc1", "active"),
    ("O=C(CCN1CCCC1)Nc1ccc2c(NCCc3ccccc3)c3ccccc3nc2c1", "active"),
    ("O=C1CC(c2ccsc2)c2snc(-c3ccc(Cl)cc3)c2N1 (configuration not stated)", "inactive"),
    ("COc1ccc(C(=O)/C=C/c2cc(-c3ccc4c(c3)OCO4)n[nH]2)cc1OC", "inactive"),
]

Tell me the recorded outcome of this test for O=C(Nc1ccc(Nc2ccncc2)cc1)c1ccc(Nc2ccnc3ccc([N+](=O)[O-])cc23)cc1[N+](=O)[O-] .
inactive

How about C[C@@H](Oc1cc(-n2cnc3ccc(OCC4CCN(C)CC4)cc32)sc1C(N)=O)c1ccccc1Cl ?
active

###

system: SF-539 CNS; test: NCI tumour cell line growth inhibition, 48 h
measurement label: TGI

# molecule, TGI
measured = [
    ("S=C(N/N=C(\\C(=N/NC(=S)N1CCCCC1)c1ccccn1)c1ccccn1)N1CCCCC1", "> 100 µM"),
    ("CCCC(C)c1c(Cl)nc(Cl)nc1Cl (configuration not stated)", "19 µM"),
]

Provide value of TGI for this record tested with SF-539 CNS: COc1cc(O)cc(O)c1C(=O)CC(Cl)(Cl)Cl
> 100 µM

How about O=c1[nH]c(=O)n(COCc2ccccc2)c2ccccc12 ?
> 100 µM

How about ClC1c2ccccc2C2(c3ccccc3)OOC1(c1ccccc1)O2 (configuration not stated) ?
5.01 µM

How about COc1ccc(C2C(C#N)=C(S)N(C3OC(CO)C(O)C(O)C3O)C(C)=C2C(C)=O)cc1 (configuration not stated) ?
> 100 µM

How about O=C1C=C(O)c2c(O)ccc(O)c2C1=O ?
> 100 µM

How about COc1ccccc1NC(=O)C1=C(C)NC(C)=C(C(=O)Nc2ccccc2OC)C1c1cccc2ccccc12 ?
> 100 µM

How about OC(C1CCCCCCCCCC1)C(O)C1CCCCCCCCCC1 (configuration not stated) ?
> 100 µM

How about CN(C)C=NCC(O)c1ccccc1 (configuration not stated) ?
> 100 µM

How about COc1cc([C@@H]2c3cc4c(cc3[C@@H](c3c(O)cc(O)c5c3O[C@H](c3ccc(O)c(O)c3)[C@H](OC(=O)c3cc(O)c(O)c(O)c3)C5)[C@H]3COC(=O)[C@H]23)OCO4)cc(OC)c1O ?
60.1 µM

How about COC1C(CO)OC(n2c3c(Cl)cccc3c3c4c(c5c6cccc(Cl)c6[nH]c5c32)C(=O)NC4=O)C(O)C1O (configuration not stated) ?
0.489 µM

###

The entries below are paired with their reported TGI.
system: HCC-2998 colon; assay: NCI tumour cell line growth inhibition, 48 h

Recorded results for 5 molecules are shown here.
# molecule, result
records = [
    ("Cc1ccc(/C=C/C(=O)c2ccc([N+](=O)[O-])cc2)cc1", "> 100 µM"),
    ("Cn1c(COC(=O)NC2CCCCC2)c(COC(=O)NC2CCCCC2)c2ccc3cc(C=O)ccc3c21", "> 100 µM"),
    ("CC(=O)N1C(Nc2cccc3nc(C)ccc23)CCN1c1ccccc1 (stereo not given)", "> 10 µM"),
    ("C=CCOCn1ccc(N)nc1=O", "> 100 µM"),
    ("CC(=O)OCC1OC(n2c(N)c(C#N)c(-c3cccc(Cl)c3)c(C#N)c2=S)C(OC(C)=O)C(OC(C)=O)C1OC(C)=O (stereo not given)", "22.7 µM"),
]

# get_value(readout='TGI', item= O=C(c1nn(-c2ccc(Cl)cc2)cc1O)n1nc(C(F)(F)F)cc1-c1ccccc1 )
> 100 µM

How about CC(C)=CCC[C@@H](C)C1=CC(=O)C(C)=C(O)C1=O ?
32.9 µM

How about O=S1c2ccccc2NC(c2ccc3ccccc3c2)CC1c1ccccc1 (stereo not given) ?
36 µM

###

system: ACHN renal; assay: NCI tumour cell line growth inhibition, 48 h
The entries below are paired with their reported TGI.

# molecule, TGI
data = [
    ("N#Cc1c(N2CCCC2)nsc1Nc1ccc(F)cc1", "> 100 µM"),
    ("O=C(Nc1ccc(Oc2ccc(NC(=O)Nc3ccc([N+](=O)[O-])cc3)cc2)cc1)Nc1ccc([N+](=O)[O-])cc1", "> 52.6 µM"),
    ("Cc1cccc(C(C)C)c1NC(=O)CCl", "> 100 µM"),
    ("c1ccc2cc(C[n+]3ccn(Cc4ccc5ccccc5n4)c3)ccc2c1", "18.5 µM"),
    ("C[N+]1([O-])[C@H]2CC(OC(=O)[C@H](CO)c3ccccc3)C[C@H]1[C@H]1O[C@H]12 (stereo partly specified)", "> 100 µM"),
    ("O=C(NO)c1ccc(Cn2c(=O)n(-c3ccccc3)c(=O)c3ccccc32)cc1", "6.37 µM"),
    ("CCOC(=O)C(=O)Nc1ccccc1OCC", "> 100 µM"),
    ("CC[C@H](C)[C@H](NC(=O)NC(C)(C)C)C(=O)N(C)[C@H](C[C@@H](OC(C)=O)c1nc(C(=O)N[C@@H](Cc2ccccc2)C[C@H](C)C(=O)OC)cs1)C(C)C", "> 25 µM"),
]

Provide value of TGI for this record tested with ACHN renal: CN(/N=C/c1ccc(Cl)cc1)C1=NCCCCN1
> 100 µM

###

tested on: UACC-62 melanoma; test: NCI tumour cell line growth inhibition, 48 h
The entries below are paired with their reported TGI.

# compound, TGI
rows = [
    ("Cc1ccc(NC(=O)/C(=N/NC(=O)C[N+](C)(C)C)c2nc3ccccc3[nH]c2=O)cc1", "> 100 µM"),
]

From here, focus on the item given below.
# get_value(readout='TGI', item= CC1=NN(C(=O)Cc2ccccc2)C(=O)/C1=C\c1ccccc1O )
> 100 µM

###

test system: CAKI-1 renal; assay: NCI tumour cell line growth inhibition, 48 h
The entries below are paired with their reported TGI.

# compound, TGI
measured = [
    ("O=C(N[C@H]1CCC[C@H]1C(=O)Nc1ccc(C(F)(F)F)cc1)OCc1ccccc1", "> 100 µM"),
]

# get_value(readout='TGI', item= S=C(N/N=C(\C(=N/NC(=S)N1CCCCC1)c1ccccn1)c1ccccn1)N1CCCCC1 )
> 100 µM

###

test system: 786-0 renal; assay: NCI tumour cell line growth inhibition, 48 h
The entries below are paired with their reported TGI.

Recorded results for 4 compounds are shown here.
# compound, TGI
measured = [
    ("CC1C(C#N)(C#N)C(C#N)=C(N)C1(C)[N+](=O)[O-] (centres undefined)", "> 100 µM"),
    ("Clc1ccc2nc(Cl)c3ccccc3c2c1", "60.8 µM"),
    ("CNc1ccc([N+](=O)[O-])c2c(NCCCN(C)C)ccnc12", "> 100 µM"),
    ("N#Cc1ccc2[nH]c3c(c2c1)CC(=O)Nc1ccccc1-3", "> 100 µM"),
]

# get_value(readout='TGI', item= O=C(Nc1ccc(Sc2ccc(N=Nc3c(O)c(S(=O)(=O)O)cc4cc(S(=O)(=O)O)ccc34)cc2)cc1)c1ccc(N=Nc2c(O)c(S(=O)(=O)O)cc3cc(S(=O)(=O)O)ccc23)cc1 )
> 100 µM

How about OC(C1CCCCCCCCCC1)C(O)C1CCCCCCCCCC1 (centres undefined) ?
> 100 µM

How about CCOC(=O)c1ccccc1SC(C[N+](=O)[O-])c1ccccc1 (centres undefined) ?
4.97 µM

How about COc1cc(C(O)C(=O)c2cnc3cc([N+](=O)[O-])ccc3n2)ccc1O (centres undefined) ?
> 100 µM
